Parameter: solubility kinetic. Scope: all listed entries.
conditions: buffer; pH 7.4; 200.0 µM
METRIC NAME: solubility kinetic (mg/mL)

[[record]]
compound = "CC(=O)c1sc(-c2cccc(Cl)c2)nc1C"
metric_name = "solubility kinetic"
units_of_measure = "mg/mL"
readout_relation = "="
result = 0.0031

[[record]]
compound = "COc1ccc(/C(C)=N/NC(=O)CNC(=O)c2ccco2)cc1"
metric_name = "solubility kinetic"
units_of_measure = "mg/mL"
readout_relation = ">"
result = 0.0473

[[record]]
compound = "O=c1oc2ccccc2c(N2CCOCC2)c1[N+](=O)[O-]"
metric_name = "solubility kinetic"
units_of_measure = "mg/mL"
readout_relation = ">"
result = 0.0414

[[record]]
compound = "COc1ccc(NC(=O)/C=C/C(=O)O)c(OC)c1"
metric_name = "solubility kinetic"
units_of_measure = "mg/mL"
readout_relation = "="
result = 0.037

[[record]]
compound = "Cc1ccc(S(=O)(=O)NCCC(=O)NNc2c(F)c(F)cc(F)c2F)cc1"
metric_name = "solubility kinetic"
units_of_measure = "mg/mL"
readout_relation = ">"
result = 0.0608

[[record]]
compound = "Cc1cccc(C)c1OCC(=O)Nc1ccc(N2CCOCC2)cc1"
metric_name = "solubility kinetic"
units_of_measure = "mg/mL"
readout_relation = "="
result = 0.006

[[record]]
compound = "CC1(C)Cc2c(C#N)c(SCCO)nc(N3CCOCC3)c2CO1"
metric_name = "solubility kinetic"
units_of_measure = "mg/mL"
readout_relation = ">"
result = 0.0524

[[record]]
compound = "Cn1cc(C(=O)NCC(=O)Nc2ccccc2Br)cn1"
metric_name = "solubility kinetic"
units_of_measure = "mg/mL"
readout_relation = ">"
result = 0.0506

[[record]]
compound = "Cc1cccc(OCCn2ccnc2)c1C"
metric_name = "solubility kinetic"
units_of_measure = "mg/mL"
readout_relation = "="
result = 0.0227

[[record]]
compound = "COc1ccccc1CNC(=O)c1sccc1-c1ccccc1"
metric_name = "solubility kinetic"
units_of_measure = "mg/mL"
readout_relation = "="
result = 0.0144

[[record]]
compound = "Cc1cccc(COc2ccc(/C=C3/C(=O)N(C)C(=S)N3C)cc2)c1"
metric_name = "solubility kinetic"
units_of_measure = "mg/mL"
readout_relation = "="
result = 0.0054

[[record]]
compound = "O=C(Nc1ccc2ncccc2c1)c1cccc(Br)c1"
metric_name = "solubility kinetic"
units_of_measure = "mg/mL"
readout_relation = "="
result = 0.0025

[[record]]
compound = "CC(NC(=O)CN(C)CC(=O)Nc1ccc(Cl)cc1)c1ccc(F)cc1 (centres undefined)"
metric_name = "solubility kinetic"
units_of_measure = "mg/mL"
readout_relation = ">"
result = 0.0567

[[record]]
compound = "Cn1c(C(=O)O)c(S(=O)(=O)c2ccc(Cl)cc2)c2ccccc21"
metric_name = "solubility kinetic"
units_of_measure = "mg/mL"
readout_relation = "="
result = 0.0518

[[record]]
compound = "CCOc1nc2ccccc2cc1/C=C/C(=O)O"
metric_name = "solubility kinetic"
units_of_measure = "mg/mL"
readout_relation = "="
result = 0.0131

[[record]]
compound = "CCOc1cc(C(=O)Nc2ccc(N3CCOCC3)cc2)cc(Br)c1OC"
metric_name = "solubility kinetic"
units_of_measure = "mg/mL"
readout_relation = "="
result = 0.002

[[record]]
compound = "O=C(NCc1cccnc1)Nc1cc(Cl)cc(Cl)c1"
metric_name = "solubility kinetic"
units_of_measure = "mg/mL"
readout_relation = "="
result = 0.0152

[[record]]
compound = "Cc1ccccc1C1NC(c2ccccc2C)C([N+](=O)[O-])C(C)(C)C1[N+](=O)[O-] (centres undefined)"
metric_name = "solubility kinetic"
units_of_measure = "mg/mL"
readout_relation = "="
result = 0.0003

[[record]]
compound = "COC(=O)CN1CCN(C(=O)c2ccco2)CC1"
metric_name = "solubility kinetic"
units_of_measure = "mg/mL"
readout_relation = ">"
result = 0.0378

[[record]]
compound = "CC(C)(C)c1ccc(C(=O)OCCN2CCCCC2)cc1.Cl"
metric_name = "solubility kinetic"
units_of_measure = "mg/mL"
readout_relation = "="
result = 0.046

[[record]]
compound = "Cc1ccc(Cl)cc1NC(=O)Cn1c(C)csc1=O"
metric_name = "solubility kinetic"
units_of_measure = "mg/mL"
readout_relation = "="
result = 0.0164

[[record]]
compound = "CC(=O)Nc1ccc(NC(=O)C(C)Sc2nnc(-c3ccc4c(c3)OCO4)o2)cc1 (centres undefined)"
metric_name = "solubility kinetic"
units_of_measure = "mg/mL"
readout_relation = ">"
result = 0.064

[[record]]
compound = "O=C(Nc1nsc(-c2ccccc2)n1)c1ccc(F)cc1"
metric_name = "solubility kinetic"
units_of_measure = "mg/mL"
readout_relation = "="
result = 0.0322

[[record]]
compound = "COc1cccc(Nc2nc(C)nc3c2oc2ccccc23)c1"
metric_name = "solubility kinetic"
units_of_measure = "mg/mL"
readout_relation = "="
result = 0.0003


====

conditions: buffer; pH 7.4; 200.0 µM
Classification field: 1 = solubility kinetic at or over 20 µg/mL; 0 = solubility kinetic under 20 µg/mL.

[[record]]
compound = "Nc1ncnc(Oc2cccc(C(F)(F)F)c2)c1[N+](=O)[O-]"
assigned_category = 0

[[record]]
compound = "COc1ccc(CN(C)CC(=O)Nc2cccc3ccccc23)cc1F"
assigned_category = 0

[[record]]
compound = "CCCN1CCC(NC(=O)C2CCN(C(C)=O)CC2)CC1"
assigned_category = 1

[[record]]
compound = "Cc1cc(C)c2cc(C(=O)N(C)C3CCN(C)CC3)[nH]c2c1"
assigned_category = 1

[[record]]
compound = "O=C(OCC(=O)N1CCc2ccccc2C1)c1cccs1"
assigned_category = 1

[[record]]
compound = "CC(C)Oc1ccc(/C=C(\\C#N)C(=O)NC2CC2)cc1"
assigned_category = 0

[[record]]
compound = "CCOC(=O)C1CCCN(c2c(NCCc3cccc(C)c3)c(=O)c2=O)C1 (configuration not stated)"
assigned_category = 0

[[record]]
compound = "COc1ccccc1NC(=O)/C=C\\c1ccco1"
assigned_category = 1

[[record]]
compound = "CC(C)CC(NC(=O)C1CCCCC1)C(=O)NC(C)c1ccccc1 (configuration not stated)"
assigned_category = 1

[[record]]
compound = "O=C(Nc1ccccc1Cl)OC1CCCCC1"
assigned_category = 0

[[record]]
compound = "CC(Sc1ncccn1)C(=O)NNC(=O)c1cccc(Cl)c1 (configuration not stated)"
assigned_category = 1

[[record]]
compound = "COCC(=O)NC1CC(C)(C)Cc2c1cnn2-c1ccc(F)cc1 (configuration not stated)"
assigned_category = 1


====

conditions: buffer; pH 7.4; 200.0 µM
List of solubility kinetic values.
METRIC NAME: solubility kinetic

[[record]]
compound = "CCOC(=O)c1cccc(NC(=O)CCc2ccccc2)c1"
result = "33.1 µg/mL"

[[record]]
compound = "CCOc1ccc(/C=N/N2C(C)CCCC2C)cc1OC (stereo unspecified)"
result = "> 43.6 µg/mL"

[[record]]
compound = "CN(c1ccccc1)S(=O)(=O)c1cccc(C(=O)OCC(=O)Nc2ccc(C(N)=O)cc2)c1"
result = "9.9 µg/mL"

[[record]]
compound = "O=C(Nc1ccccc1)c1ccc(-c2ccc(F)cc2)s1"
result = "< 0.6 µg/mL"

[[record]]
compound = "CCn1c(C)nc2cc(C(=O)NN=Cc3ccccc3OC(F)F)ccc21"
result = "> 55.9 µg/mL"

[[record]]
compound = "O=[N+]([O-])c1cccc(CSc2cccc[n+]2[O-])c1"
result = "> 39.3 µg/mL"

